System: nine human tumor cell lines
procedure_summary: Average antiproliferative activity over the tumor cell line panel (NCI criteria)
Type: cell-based
measurement_conditions: Homo sapiens, 48 h, class symbol by NCI's criteria on mean logGI50; read-out: Mean logGI50 activity class (NCI's criteria)
quantity_kind: GI50

Below: 3 compounds and their reported GI50.
COc1cc2c(cc1OC)C1=C(CC2)C(C)(C)OCC1C (stereo not shown)
> 31.6 µg/mL
CC1COC(C)(C)C2=C1c1cc(O)c(O)cc1CC2 (stereo not shown)
1 to 12.6 µg/mL
CC1COC(C)(C)C2=C1c1cccc(O)c1CC2 (stereo not shown)
> 31.6 µg/mL

# GI50 lookup, item COc1ccc2c(c1)CCC1=C2C(C)COC1(C)C (stereo not shown)
12.6 to 31.6 µg/mL

Would you mind telling me what GI50 value was observed for COc1cccc2c1C(=O)c1c(O)c3c(c(O)c1C2=O)C[C@@](O)(C(=O)CO)C[C@@H]3O[C@H]1C[C@H](N)[C@H](O)[C@H](C)O1 [Doxorubicine, doxorubicin, reference compound] ?
< 1 µg/mL

What does the data say about its GI50? Entry: COc1cccc2c1CCC1=C2C(C)COC1(C)C (stereo not shown)
12.6 to 31.6 µg/mL

Request the reported GI50 associated with CC1COC(C)(C)C2=C1c1cc(O)ccc1CC2 (stereo not shown)
12.6 to 31.6 µg/mL

For the compound shown here, COc1cc2c(cc1O)C1=C(CC2)C(C)(C)OCC1C (stereo not shown) , give the reported GI50.
12.6 to 31.6 µg/mL

Which measured GI50 value corresponds to CC1COC(C)(C)C2=C1c1ccc(O)cc1CC2 (stereo not shown) ?
> 31.6 µg/mL

What value of GI50 has been reported for the following compound? COc1ccc2c(c1)C1=C(CC2)C(C)(C)OCC1C (stereo not shown)
12.6 to 31.6 µg/mL
